# target-or-system: CDK6/cyclin D1 (Homo sapiens (Human))
# Sequence (Q00534 whole entry, species assumed): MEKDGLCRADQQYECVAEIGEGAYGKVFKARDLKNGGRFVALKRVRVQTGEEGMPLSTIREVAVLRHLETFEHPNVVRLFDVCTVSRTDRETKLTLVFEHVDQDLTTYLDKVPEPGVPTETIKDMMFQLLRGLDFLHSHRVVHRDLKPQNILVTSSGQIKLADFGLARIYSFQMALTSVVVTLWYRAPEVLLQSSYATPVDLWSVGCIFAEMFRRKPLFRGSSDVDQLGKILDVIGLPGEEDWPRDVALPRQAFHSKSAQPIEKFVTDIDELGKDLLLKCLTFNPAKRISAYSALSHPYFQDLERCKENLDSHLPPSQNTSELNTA
# Sequence (P24385 whole entry partner, species assumed): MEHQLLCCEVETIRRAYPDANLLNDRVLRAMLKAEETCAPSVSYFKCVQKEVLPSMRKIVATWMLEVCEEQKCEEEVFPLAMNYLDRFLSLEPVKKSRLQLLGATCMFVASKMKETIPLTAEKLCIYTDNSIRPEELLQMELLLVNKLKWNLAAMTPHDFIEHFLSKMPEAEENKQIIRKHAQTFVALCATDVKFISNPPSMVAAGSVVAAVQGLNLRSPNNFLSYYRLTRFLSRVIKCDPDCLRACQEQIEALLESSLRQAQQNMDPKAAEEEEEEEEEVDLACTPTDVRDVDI
# experimental-details: Biochemical kinase inhibition test, CDK6/cyclin D1 (similar method)
# cond: CDK6/cyclin D1; 10 μM ATP; read-out: CDK6/Cyelin D1 IC50
# Experimental: Potency determination of biochemical kinase inhibition test. Kinase activity test and IC50 determination. […] The kinase reaction was initiated by adding 1 μg (1.5 μM) of recombinant retinoblastoma protein, 5 μM ATP and 10μ Ci γ-32P-ATP. […] A densitometer (Bio-Rad) was used to quantify the corresponding phosphorylated substrate protein bands. […]
recorded-metric: IC50

Please review the entries below; each comes with its answer.
[
  {
    "input-smiles": "CC(C)c1cnc2ccc3cnc(Nc4ccc(N5CCC6(CCNCC6)C5)cn4)nc3n12",
    "IC50": "20 to 50 nM"
  },
  {
    "input-smiles": "CC(C)c1cnc2ccc3cnc(Nc4ccc(N5CCNCC5)c(F)n4)nc3n12.Cl",
    "IC50": "10 to 20 nM"
  },
  {
    "input-smiles": "CC(C)c1cnc2ccc3cnc(Nc4ccc(N5CCNC(C)(C)C5)cn4)nc3n12",
    "IC50": "5 to 10 nM"
  }
]

Now look at this one.
Please fill in: IC50 reported for Cc1cc(Nc2ncc3ccc4ncc(C5CCCC5)n4c3n2)ncc1N1CCNCC1.Cl = < 1 nM

----------
# target-or-system: CDK6/cyclin D1 (Homo sapiens (Human))
# experimental-details: Biochemical kinase inhibition test, CDK6/cyclin D1 (similar method)
# cond: CDK6/cyclin D1; 10 μM ATP; read-out: CDK6/Cyelin D1 IC50
recorded-metric: IC50

[
  {
    "molecule": "CC1CN(c2ccc(Nc3ncc4ccc5ncc(C(C)C)n5c4n3)nc2)CCO1 (stereo not shown)",
    "IC50": "0.005 to 0.01 µM"
  },
  {
    "molecule": "CC(C)c1cnc2ccc3cnc(Nc4ccc(N5CC6(CNC6)C5)cn4)nc3n12",
    "IC50": "0.02 to 0.05 µM"
  },
  {
    "molecule": "Fc1nc(Nc2ncc3ccc4ncc(C5CCCC5)n4c3n2)ccc1N1CCNCC1",
    "IC50": "0.005 to 0.01 µM"
  },
  {
    "molecule": "Cc1nc(Nc2ncc3ccc4ncc(C(C)C)n4c3n2)ccc1N1CCOCC1",
    "IC50": "0.005 to 0.01 µM"
  },
  {
    "molecule": "CC(C)c1cnc2ccc3cnc(Nc4ccc(N5CC6(CCNCC6)C5)cn4)nc3n12",
    "IC50": "0.02 to 0.05 µM"
  }
]

// sample Cc1nc(Nc2ncc3ccc4ncc(C(C)C)n4c3n2)ccc1N1CCNCC1.Cl , its IC50 was < 0.001 µM

IC50 reported for this molecule CC(C)c1cnc2ccc3cnc(Nc4ccc(N5C[C@@H](C)O[C@@H](C)C5)cn4)nc3n12 : 0.01 to 0.02 µM

Note to self: IC50 recorded for CC(C)c1cnc2ccc3cnc(Nc4ccc(N5CCNCC5)cn4)nc3n12.Cl [Compound I-1, hydrochloride] was < 0.001 µM

Notebook: COc1cc(OC2CCN(C)CC2)ccc1Nc1ncc2ccc3ncc(C(C)C)n3c2n1 , IC50 read as 0.05 to 0.1 µM

Form: molecule = CC(C)c1cnc2ccc3cnc(Nc4ccc(N5CCNCC5)cc4F)nc3n12 ; IC50 = 0.05 to 0.1 µM

----------
# target-or-system: CDK4/Cyclin D1 (Homo sapiens (Human), UniProt P11802)
# Sequence (P11802 whole entry): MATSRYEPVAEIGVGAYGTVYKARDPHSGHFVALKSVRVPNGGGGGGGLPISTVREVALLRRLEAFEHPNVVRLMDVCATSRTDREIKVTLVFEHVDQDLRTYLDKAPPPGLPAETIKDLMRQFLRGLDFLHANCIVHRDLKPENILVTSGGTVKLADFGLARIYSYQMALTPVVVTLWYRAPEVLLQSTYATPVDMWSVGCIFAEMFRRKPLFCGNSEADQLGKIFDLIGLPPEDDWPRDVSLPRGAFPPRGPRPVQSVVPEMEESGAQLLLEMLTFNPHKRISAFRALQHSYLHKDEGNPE
# Sequence (P24385 whole entry partner): as the sequence (P24385 whole entry partner, species assumed) above
# experimental-details: Biochemical kinase inhibition test, CDK4/Cyclin D1 (32P-ATP, Rb substrate)
# cond: recombinant CDK4/Cyclin D1; 10 μM ATP; read-out: CDK4/Cydin D1 IC50
Let's look at some compounds and their measured IC50.

Below: 2 compounds and their reported IC50.
[
  {
    "compound": "CC(C)c1cnc2ccc3cnc(Nc4ccc(N5CCC6(CCNCC6)C5)cn4)nc3n12 [Compound I-22]",
    "target-or-system": "CDK4/Cyclin D1 (Homo sapiens (Human), UniProt P11802)",
    "IC50": "0.02 to 0.05 µM"
  },
  {
    "compound": "CC(C)c1cnc2ccc3cnc(Nc4ccc(N5CCNC(C)(C)C5)cn4)nc3n12 [Compound I-11]",
    "target-or-system": "CDK4/Cyclin D1 (Homo sapiens (Human), UniProt P11802)",
    "IC50": "0.005 to 0.01 µM"
  }
]

// next item, IC50 requested
Memo: CC(C)c1cnc2ccc3cnc(Nc4ccc(N5CCCCC5)cn4)nc3n12 [Compound I-16] , reported IC50: 0.02 to 0.05 µM

Each recorded value in this set is attributed to patent US11091485B2.
